Data origin, for the record: paper PMC3477848

# target.or.system: T1, Dpo4 (SsoDpo4, Y-family DNA polymerase) (Sulfolobus solfataricus, UniProt Q97W02 1-352)
# T1 sequence: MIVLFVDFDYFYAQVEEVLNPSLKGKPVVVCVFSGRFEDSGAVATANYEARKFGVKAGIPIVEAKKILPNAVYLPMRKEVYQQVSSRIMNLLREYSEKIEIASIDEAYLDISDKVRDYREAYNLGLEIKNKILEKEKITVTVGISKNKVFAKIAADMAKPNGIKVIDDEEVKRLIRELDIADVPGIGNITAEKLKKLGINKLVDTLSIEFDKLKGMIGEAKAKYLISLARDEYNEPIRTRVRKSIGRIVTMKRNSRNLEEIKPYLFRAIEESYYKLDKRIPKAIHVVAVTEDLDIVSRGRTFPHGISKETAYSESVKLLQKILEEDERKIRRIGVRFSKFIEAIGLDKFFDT
# experimental.protocol: fluorescence anisotropy
observed.property: Kd (nM)
Give bare numbers, in nM.

Lookup: # input binder: TTTTTTTTTTCCCGGGCCGGCGTTTCGCCGGCCCGGG (structured_DNA) [37-nt hairpin primer-template, 5'-Cy3] ; wanted: its Kd
Found: 140
